Test summary: inhibitors of mutant huntingtin aggregation, primary screen, imaging, exon1htt(103Q)mCFP cells, high-content imaging (AID 483);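 also: compound exposure lasted 3 days before fixation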
Assay context: exon1htt(103Q)mCFP cell line, aggregate imaging, at 2 µM; hits give high values
Reported values of inhibition of aggregation for individual entries
API: value field is a number in %; no unit string.

Molecule	Result unit	Endpoint value
CCSc1oc(-c2cccs2)nc1S(=O)(=O)c1ccccc1	%	-10.8
OCCNCCCCOc1ccccc1F	%	-2.5

Query: inhibition of aggregation; subject: CCCC(=O)C1=C(N(C)c2ccccc2)CC(C)(C)C(C(=O)OC)C1=O (stereo unspecified)
3.6

Reported inhibition of aggregation, molecule COc1ccc(-c2nnc(SCC(=O)Nc3ccc(Cl)cc3)n2C)cc1 : ____
-26.9

Please give the measured inhibition of aggregation for this molecule: COc1ccc(C)cc1S(=O)(=O)Nc1cccnc1
13.9

Given the molecule Cc1nc2cc(Cl)ccc2n1CCO , what is its reported inhibition of aggregation?
-6.3

Given the entry Cc1ccc(-c2nnc(N3CCN(C(=O)CN4C(=O)c5ccccc5C4=O)CC3)c3ccccc23)cc1 , report its measured inhibition of aggregation.
-15.9

Field request: inhibition of aggregation | item: CCOC(=O)CSc1nnc(Cn2nnc(-c3ccccc3)n2)n1CC
5.4

Requested read-out: inhibition of aggregation. Entry: CCN(CC)S(=O)(=O)c1ccc(Br)c(OC)c1
-7.1

Look up inhibition of aggregation for this molecule: CCOc1ccc(NS(=O)(=O)c2ccc(OCC(=O)N3CCCC3)cc2)cc1
43.4

So what's the measured inhibition of aggregation for this one? CCOC(=O)Nc1ccc2c(c1)N(C(=O)OCCN(C)C)c1ccccc1CC2
25.6
